Molecular target: MMP-14 (Homo sapiens, UniProt P50281)
Construct: The catalytic domain enzyme was expressed in E. coli inclusion bodies, solubilized in urea; made in house
Assay: In vitro MMP inhibition, Ki determination (fluorogenic substrate II)
Type: biochemical
Conditions: value outside parentheses; read-out: MMP-14 Ki
endpoint: Ki (µM)
Answers are plain numbers, in µM.

# molecule, unit.of.measurement, Ki
records = [
    ("O=C(NO)C1(S(=O)(=O)N2CCC(c3ccc(-c4ccccn4)cn3)CC2)CCOCC1", "µM", 1.77),
    ("CCCCc1ccc(C2CCN(S(=O)(=O)C3(C(=O)NO)CCOCC3)CC2)nc1 [Example 323]", "µM", 1.29),
    ("O=C(NO)C1(S(=O)(=O)N2CCN(c3ncc(-c4ccc(F)cc4F)s3)CC2)CCOCC1", "µM", 0.0429),
    ("CCCCOc1ccc(N2CCN(S(=O)(=O)C3(C(=O)NO)CCN(c4ccc(C)cc4)CC3)CC2)cc1", "µM", 8.65),
]

Please supply Ki for each of the following items, keeping them in order.
1. COc1ccccc1-c1ccc(N2CCN(S(=O)(=O)C3(C(=O)NO)CCOCC3)CC2)nc1
2. Cc1ccc(-c2ccc(C3CCN(S(=O)(=O)C4(C(=O)NO)CCOCC4)CC3)nc2)s1
3. CCCCOc1ccc(N2CCN(S(=O)(=O)C3(C(=O)NO)CCN(C(=O)c4cccnc4)CC3)CC2)cc1

stdout:
1.49
0.506
2.39

----------
Please provide measured pIC50 for the entries that follow.
Biological target: MMP-13 (Homo sapiens, UniProt P45452)
Construct: made in house; host or cells: baculovirus / insect cells
Assay: In vitro MMP inhibition, IC50 determination (fluorogenic substrate I)
Format: biochemical
Conditions: value in parenthesis; read-out: MMP-13 (IC-50)
One number for each entry, as −log10 of the molar value.

Some compounds with known pIC50 results, for comparison:
# record.smiles, measurement
data = [
    ("COCCN1CCC(C(=O)NO)(S(=O)(=O)N2CCN(c3ccccc3)CC2)CC1", 7.94),
    ("COCCCc1ccc(N2CCN(S(=O)(=O)C3(C(=O)NO)CCN(CCOC)CC3)CC2)cc1", 8.92),
]

Please supply pIC50 for each of the following items, keeping them in order.
1. CCCCCc1ccc(N2CCN(S(=O)(=O)C3(C(=O)NO)CCOCC3)CC2)nn1
2. CCOCCCc1ccc(N2CCN(S(=O)(=O)C3(C(=O)NO)CCN(CCOC)CC3)CC2)cc1

stdout:
1. 7.45
2. 9.28

----------
Target: MMP-14 (Homo sapiens)
Construct: The catalytic domain enzyme was expressed in E. coli inclusion bodies, solubilized in urea; made in house
Assay: MMP-14 inhibition (in vitro Ki)
Format: biochemical
Settings: Table 9; read-out: MMP-14 Ki (IC-50)
endpoint: Ki

Some molecules with known Ki results, for comparison:
# record.smiles, experimental.system, Ki
data = [
    ("O=C(NO)C1(S(=O)(=O)N2CCN(c3nnn(Cc4ccccc4)n3)CC2)CCOCC1", "MMP-14 (Homo sapiens)", "1150 nM"),
    ("N#Cc1ccc(N2CCN(S(=O)(=O)C3(C(=O)NO)CCOCC3)CC2)cc1F", "MMP-14 (Homo sapiens)", "1300 nM"),
    ("O=C(NO)C1(S(=O)(=O)N2CCC(c3ccc(COCC4CC4)cn3)CC2)CCOCC1", "MMP-14 (Homo sapiens)", "2290 nM"),
    ("O=C(NO)C1(S(=O)(=O)N2CCC(N3CCN(c4ccc(F)cc4)CC3)CC2)CCOCC1", "MMP-14 (Homo sapiens)", "> 10000 nM"),
    ("O=C(NO)C1(S(=O)(=O)N2CCC(c3ccc(CCC(F)(F)C(F)(F)F)cn3)CC2)CCN(c2ccccc2)CC1", "MMP-14 (Homo sapiens)", "> 10000 nM"),
    ("C#CCN(C)C(=O)CCCCC1CCN(S(=O)(=O)C2(C(=O)NO)CCOCC2)CC1", "MMP-14 (Homo sapiens)", "> 10000 nM"),
]

Please supply Ki for each of the following items, keeping them in order.
1. CCn1nnc(-c2ccc(N3CCN(S(=O)(=O)C4(C(=O)NO)CCOCC4)CC3)cc2)n1
2. O=C(NO)C1(S(=O)(=O)N2CCC(c3cnc(CCC4CC4)cn3)CC2)CCOCC1
3. O=C(NO)C1(S(=O)(=O)N2CCC(c3ccc(CCC(F)(F)C(F)(F)F)cn3)CC2)CCN(c2ncccn2)CC1

stdout:
421 nM
9210 nM
1950 nM

Please supply Ki for each of the following items, keeping them in order.
1. CC(C)CC#Cc1ccc(C2CCN(S(=O)(=O)C3(C(=O)NO)CCOCC3)CC2)nc1
2. O=C(NO)C1(S(=O)(=O)N2CCC(c3ccc(CCc4ccccc4)cn3)CC2)CCOCC1

stdout:
1: 763 nM; 2: 1770 nM
